- Test system: VDR homodimer (NR concentration 270 nM)
- Experiment: PBM binding z-score (relative to random genomic background probes); higher = stronger binding; sequences stand for … in GC…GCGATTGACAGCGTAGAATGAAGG
Observable: PBM binding z-score

CCAGACAGGTGAAAGGTAACTCACTCTGGTACGC
-0.0544
GATACAGAGTCAGCTAGAGGCCAGAGTATGGAAA
-0.0123
CGAACTAGGTCAAAGGACAATGAAAGGCGACGTA
0.585
CGAACTAGGTCACCAGGAAAGTGAAGAGGTTGGA
0.43
ATATGTAGGTTAGGGTCATACAGAAAGTAGGGAA
3.03
TAGCCTAGGTCATGCGGGTCAGTATAGTGTCGGC
2.26
CTATGTAGGTTAAGGGGGTCATTAAGTTTGAAAG
6.07
TAGCCTCGGTCATTGGGCCAGTATAGTACGCATC
-0.289
TCATATAGGTAAAAGGTCAAAGTCGGTGTGGTAA
3.09
GCTGCTAGGTCAACTGAAGGTCAGCTAAAGCTCG
1
CGAACTAGGTCAATGGACAGTGAAAGGCGACGTA
0.0508
ATCGAACGGTCGACGAGGTGAGTATACACCGTTT
-0.356
ACTCGGAGGACAAACGTCAGAGCTACGCCAGTGA
-0.183
CGAACTATGTCAAGGACAGTGAATCTCCGCACGC
-0.0899
TCGAGTAGGTTACGGGGGCCTTCAGGGATGAAGA
0.302
GATACAGGGTCAAGGCCAGAATACGCGTATTGAT
1.6
CGAACTAGGTCAGAACAGGACAGTTAAGGATGAT
0.142
ATATGTAGGTTACATCCGGGTCATTCTGGCTATG
2.5
CTATGTAGGATAAGGGGGTCATTCAGTTTGAAAG
6.25
CTATGTAGGTTCAGGGGGTCATTCAGTTTGAAAG
6.83
CGTCAAAGTTCAACTAAGTTAACGTAAAGCACGC
3.74
CTATGTAGGTTAAGGGGGTCATTCGGTTTGAAAG
6.78
TCTGCTTGGTCAACGATGGTCAGCTAATCTGCTA
-1.09
ATATGTAAGTTAGGGTCATTCAGAAAGTAGGGAA
3.96
ACTTACGGGTCAACGAAGTTATAGCACGCGTATA
0.948
CAAACTAGGTCACAGAGGTCGAAGTCCGTGCGTA
3.88
CGAACTAGGTCACCAGGACAGTTAAGAGGTTGGA
0.347
CTATGTAGGTTAATGGGGTCATTCAGTTTGAAAG
7.21
GCTGCTAGGTCAGGTTGGTCAGCTAACGGGTACG
0.466
CCGAGTAGGTTACCAGGGGGCATTCAGTGCGAAT
3.64
TCGAGTAGGTTACGGGGGCATACAGGGATGAAGA
2.83
TCGAGTAGGTGACGGGGGCATTCAGGGATGAAGA
3.28
CCGAGTAGGTTACGAGGGGGCATTCTGTGCGAAT
2.56
ATCGAAAGGTCGTCGAGGTGAGTATACACCGTTT
2.41
CGTCCAAGGTCATAAGAGGTCAGTGAAGACAGAT
5.57
CCTAGTTGGTCAAGGTCCCACACGCTATAGGTAC
0.734
GCTAGTAGGTCAGTAAAAGGTCACACACCGGTCG
2.37
TTAACAAGGTGAAAGGTCGTTGATGCACGCCTTG
1.24
CCTACTGGGCCATTCAGAGGTTATTGATCATATG
0.749
CCGAGTAGGTTGCGAGGGGGCATTCAGTGCGAAT
3.23
TAGCCAAGGTCATTCAGGGGCCAGTATAGAAAGC
3.99
CGAAGTAGGTCACCAGGACAGTGAAGAGGTTGGA
0.581
CCTACTGGGCCATTAAGAGGTCATTGATCATATG
2.79
ATATGTAGGTTAGGGTCCTTCAGAAAGTAGGGAA
0.793
ATAAGTAGGTTAGGGTCATTCAGAAAGTAGGGAA
4.32
CGAAATAGGTCACCAGGACAGTGAAGAGGTTGGA
0.687
CGAACTAGGTCCAAGGACAGTGAAAGGCGACGTA
-0.041
CTATGTTGGTTAAGGGGGTCATTCAGTTTGAAAG
6.63
ACTCGGAGGGCAAAGGTCAGAGCTACGCCAGTGA
1.05
CGAACTAGGACATCCAGGACAGTGAATACATTGA
0.467
CCTAGTTGGTCAGGGGGTCACACACCGGATATGA
3.16
